Measured GI50 accompanies every entry in the list below.
test system: PC-3; experiment: NCI tumour cell line growth inhibition, 48 h
Calls of active or inactive are those of the source. Rule as the data show it: active = GI50 up to about 1.1 µM and inactive = higher.

Below: 4 compounds and their reported GI50.
Data request, read-out GI50, for O=C(O)c1cccc(F)c1C(=O)c1ccc2ccccc2c1 > 100 µM (inactive)

For the compound Cn1c2ccccc2c(=NNc2ccc(C(=O)O)cc2)c2ccccc21 , what GI50 is on record? 14.1 µM (inactive)

Which GI50 value belongs to C=C1C[C@@H]2O[C@H]3[C@H]4[C@@H](C[C@@H](C)[C@@H](OC(C)=O)[C@H]42)[C@@H](C)CO[C@@]3(C)[C@H](OC(=O)CCCCCCC)CC1=O ? 9.82 µM (inactive)

Dear colleague, I am looking for the recorded GI50 of the following compound: CC(C)C(/C=C/c1ccc(Cl)cc1)=N\NC(=O)N/N=C(/C=C/c1ccc(Cl)cc1)C(C)C > 100 µM (inactive)

The record that follows has no GI50 shown yet.
# lookup: GI50 of COC(=O)/C=C/c1ccc2nncnc2c1.COC(=O)/C=C\c1ccc2nncnc2c1 34.7 µM (inactive)

###

system: SK-OV-3; test: NCI tumour cell line growth inhibition, 48 h
Active and inactive are the calls of the source. No stated cut-off is given here; in the data, active = GI50 up to about 1.1 µM and inactive = higher.
measure: GI50

Data request, read-out GI50, for O=C1c2cccc3cc([N+](=O)[O-])cc(c23)C(=O)N1CCCN1CCN(CCCN2C(=O)c3cccc4cc([N+](=O)[O-])cc(c34)C2=O)CC1 2.59 µM (inactive)

Others:
Quick one: GI50 for O=C(c1ccsc1)c1nccc2c1cnc1ccccc12 ? 54.8 µM (inactive)

Name the recorded GI50 for Oc1cc(Br)cc2cc(Cl)cnc12 . 30.2 µM (inactive)

Which GI50 reading was recorded for the molecule CC1CC(N2CCOCC2)=Nc2ccccc2N1C (stereo not given) ? > 100 µM (inactive)

Which GI50 value is on record for Cc1cc(C)c2c(O)c(S(=O)(=O)c3ccc(Cl)cc3)c(=O)oc2c1 ? 70.8 µM (inactive)

###

Below, each of the molecules is paired with its reported GI50 value.
system: XF498; assay: NCI tumour cell line growth inhibition, 48 h
Activity calls are given as the source filed them. Cut-off read from the data, not from the text of the source: active = GI50 up to about 1.1 µM and inactive = higher.

The examples below pair each entry with its known result.
What value of GI50 on XF498 does C#CCSc1nc(N)c2ncn(C3OC(COP(=O)(O)O)C(O)C3O)c2n1 (configuration not stated) have? > 239 µM (inactive)

Please state recorded GI50 (tested on XF498) of CCOP(=O)(OCC)/C(C#N)=C\c1ccc(OC(C)=O)cc1 > 100 µM (inactive)

// lookup GI50 | system=XF498 | key= Cc1cc(C)nc(NS(=O)(=O)c2ccc(Nc3c4ccccc4nc4c(C(=O)N5CCN(CCO)CC5)cccc34)cc2)n1 > 100 µM (inactive)

---
Any idea what GI50 came out for O=C1CC2(C[C@@H]3CCCCCCCCC[C@@H](C3)C2)N1 (some centres not stated) on XF498? 12.2 µM (inactive)

API: value(readout=GI50, system=XF498) for record CCOC(=O)C1=C(O)C(=O)c2cc(C)ccc2C1=O > 100 µM (inactive)

Kindly state the measured GI50 obtained for FC(F)(F)c1ccc2nc(NCc3ccccc3)c(-c3ccccc3)nc2c1 with XF498. 15.1 µM (inactive)

Tell me reported GI50 for COC(=O)C(=O)C(C#N)c1cccc(Cl)c1 (configuration not stated) , tested with XF498. > 100 µM (inactive)

Just for reference, ChEMBL document CHEMBL1201862 is where these values come from.
